- Test system: NHDF
- EXPERIMENT SUMMARY: Cytotoxic activity against NHDF cell growth; Not active
- Assay type: functional, cell-based, Homo sapiens
MEASURED PARAMETER: IC50

Recorded IC50, per entry:
{"columns": ["COMPOUND", "IC50"],
 "data": [
  ["Cc1cn(C2CC=C(P(=O)(O)O)OC2CO)c(=O)[nH]c1=O (stereo not given)", "Not Active"],
  ["CC1OC(P(=O)(O)O)=CCC1n1cnc2c(N)ncnc21 (stereo not given)", "Not Active"],
  ["Nc1ncnc2c1ncn2[C@@H]1C=C[C@H](P(=O)(O)O)O[C@@H]1CO", "Not Active"],
  ["Cc1cn([C@@H]2C=C[C@@H](P(=O)(O)O)O[C@@H]2CO)c(=O)[nH]c1=O", "Not Active"]
]}

Then this compound:
Entry Nc1nc(O)c2ncn([C@@H]3CC=C(P(=O)(O)O)O[C@@H]3CO)c2n1 — recorded IC50 = Not Active
